The entries below are paired with their reported pIC50.
- assayedSystem: NRAS WT (Homo sapiens (Human), UniProt P01111+P62937)
- Sequence (P01111 whole entry): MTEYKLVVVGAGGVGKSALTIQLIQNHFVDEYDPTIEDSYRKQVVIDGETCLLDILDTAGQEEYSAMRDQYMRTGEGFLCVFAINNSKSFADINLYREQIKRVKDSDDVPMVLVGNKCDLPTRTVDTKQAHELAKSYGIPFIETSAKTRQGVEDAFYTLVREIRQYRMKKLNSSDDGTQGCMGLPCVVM
- Sequence (P62937 whole entry): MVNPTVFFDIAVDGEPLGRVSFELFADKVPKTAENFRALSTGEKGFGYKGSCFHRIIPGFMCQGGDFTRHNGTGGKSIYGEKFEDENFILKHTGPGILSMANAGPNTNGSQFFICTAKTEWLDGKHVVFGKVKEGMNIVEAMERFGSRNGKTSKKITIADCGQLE
- experimentalDetails: Ras-Raf (BRAF RBD) disruption / FRET / MOA assay, NRAS WT
- Type: biochemical
- conditions: read-out: IC50* NRAS WT FRET data
pIC50: −log10 of the molar value.

Below: 3 compounds and their reported pIC50.
{"compound": "CCn1c(-c2cccnc2[C@H](C)OC)c2c3cc(ccc31)-c1csc(n1)C[C@H](NC(=O)[C@H](C(C)C)N(C)C(=O)N(C)C1CN(C(=O)/C=C/CN(C)C)C1)C(=O)N1CCC[C@H](N1)C(=O)OCC(C)(C)C2 (atropisomer, axis not shown)", "assayedSystem": "NRAS WT (Homo sapiens (Human), UniProt P01111+P62937)", "pIC50": "6.00 to 7.00"}
{"compound": "C=CC(=O)N(C)[C@H]1CC1N(C)C(=O)N(C)[C@H](C(=O)N[C@H]1Cc2nc(cs2)-c2ccc3c(c2)c(c(-c2cccnc2[C@H](C)OC)n3CC)CC(C)(C)COC(=O)[C@@H]2CCCN(N2)C1=O)C(C)C (stereo partly shown)", "assayedSystem": "NRAS WT (Homo sapiens (Human), UniProt P01111+P62937)", "pIC50": "6.00 to 7.00"}
{"compound": "C=CC(=O)N1CC[C@H](C(=O)N(C)[C@H](C(=O)N[C@H]2Cc3cc(O)cc(c3)-c3ccc4c(c3)c(c(-c3csc(N(C)C)n3)n4CC)CC(C)(C)COC(=O)[C@@H]3CCCN(N3)C2=O)C(C)C)C1", "assayedSystem": "NRAS WT (Homo sapiens (Human), UniProt P01111+P62937)", "pIC50": "< 5.00"}

API: the following record is the query input.
Annotate the compound CCn1c(-c2cccnc2[C@H](C)OC)c2c3cc(ccc31)N1CCO[C@@H](C[C@H](NC(=O)[C@H](C(C)C)N(C)C(=O)[C@@]3(F)CCC(C(=O)C#CC(C)(C)N4CCC4)C3)C(=O)N3CCC[C@H](N3)C(=O)OCC(C)(C)C2)C1 (stereo partly shown) with its measured pIC50.
5.00 to 6.00
